Hey, just so you know, these numbers are from the supplement of paper PMC12636033.

system: WT Max(13-93) synthetic (M65Nle); experiment: PBM 8-mer E-score (E-score (rank enrichment, -0.5 to 0.5)); higher = stronger preferential binding
In all, about 33,000 sequences were measured (“E-score (rank enrichment, -0.5 to 0.5)”: median about -0.0075, highest 2% from about 0.23 on). The list comes from a sample in which the highest values are over-represented; it also holds close analogues and randomly drawn sequences.
observable: PBM 8-mer E-score
One number for each entry.

Some solved entries appear below for comparison.
residue-string: CAATAATA
measured-result: 0.275
--
residue-string: ATGGAGCC
measured-result: -0.159
--
residue-string: CAACGTGG
measured-result: 0.172
--
residue-string: ATCAAGCA
measured-result: 0.113
--
residue-string: ATAAAGCA
measured-result: 0.264
--
residue-string: AGGGCCGA
measured-result: 0.0332

Below are 5 sequences. Give each one its PBM 8-mer E-score.
1. GCATGGCC
2. ATTAAGTC
3. CACACGCC
4. GCCCGGAC
5. CACGAGGG

## Output
0.0853
0.292
0.0838
-0.319
0.153

State recorded PBM 8-mer E-score for all listed sequences.
1. AAGCATGC
2. CCACGTGC

## Output
0.312
0.488

Would you be so kind as to report PBM 8-mer E-score for each listed record?
1. ATTAAAGC
2. CCATGGGG
3. CCACGTTA
4. CTACGTCC
5. CCATTACA
6. GGACTGCA
7. CGGATGAC

## Output
[0.133, -0.138, 0.3, -0.0109, 0.165, -0.017, 0.00616]

Hi! Can you tell me PBM 8-mer E-score for each of these sequences?
1. GGCAGATA
2. AAGCATGG
3. ACATGGGG

## Output
0.116
0.219
0.273

====

system: WT Max(13-93) synthetic (M65Nle); experiment: PBM 8-mer E-score (E-score (rank enrichment, -0.5 to 0.5)); higher = stronger preferential binding
In all, about 33,000 sequences were measured (“E-score (rank enrichment, -0.5 to 0.5)”: median about -0.0075, highest 2% from about 0.23 on). The sample as a whole holds a higher share of the highest values than the screen did.
observable: PBM 8-mer E-score

residue-string: GCATGCGA
tested-target: WT Max(13-93) synthetic (M65Nle)
measured-result: 0.238
//
residue-string: CCATTAGA
tested-target: WT Max(13-93) synthetic (M65Nle)
measured-result: -0.222
//
residue-string: AAAGAAAC
tested-target: WT Max(13-93) synthetic (M65Nle)
measured-result: 0.0488
//
residue-string: ATGCATTA
tested-target: WT Max(13-93) synthetic (M65Nle)
measured-result: 0.265
//
residue-string: AGGGTTTA
tested-target: WT Max(13-93) synthetic (M65Nle)
measured-result: 0.152
//
residue-string: AGTCACAC
tested-target: WT Max(13-93) synthetic (M65Nle)
measured-result: 0.0956
//
residue-string: CATATGCG
tested-target: WT Max(13-93) synthetic (M65Nle)
measured-result: 0.252
//
residue-string: GACATGCC
tested-target: WT Max(13-93) synthetic (M65Nle)
measured-result: 0.167
//
residue-string: ACATGCGC
tested-target: WT Max(13-93) synthetic (M65Nle)
measured-result: 0.0958
//
residue-string: CCATGCGA
tested-target: WT Max(13-93) synthetic (M65Nle)
measured-result: 0.087

Hello, I would appreciate it if you could give PBM 8-mer E-score for each entry below.
1. CGAAACGC
2. ATGTTAAC
3. AGTCACAT
4. CAGCACCA
5. CTCAAGAG
6. CAATCACA
7. CACATGCG
8. GTGTTATA

## Output
1. -0.14
2. 0.291
3. 0.251
4. -0.0907
5. -0.266
6. 0.247
7. 0.29
8. 0.215

Please report PBM 8-mer E-score for every entry that follows.
1. AGAAAAGC
2. CACATGCA

## Output
1. 0.121
2. 0.305

Field: PBM 8-mer E-score. Fill in for each record below.
1. GACATGCA
2. CTGAGGAA
3. CTGAGATA
4. CGTTCGAC
5. AGTCACAG
6. AACATGCC

## Output
0.144
-0.111
-0.222
-0.123
-0.117
0.093

Would you mind listing PBM 8-mer E-score for each of the following sequences?
1. CTGCATTA
2. CTGTTAAC
3. ACCGGAAA
4. GTGTTAAC
5. GTGCATGA
6. GTGCATCA

## Output
1. 0.0253
2. -0.00712
3. -0.104
4. 0.0845
5. 0.265
6. 0.0702

Provide reported PBM 8-mer E-score for each item, in the same order as listed.
1. CAGAGAAC
2. GAACGTGA
3. AACATGCG
4. CTGGATAA
5. ACATGCGA
6. ATGCATGC

## Output
1. -0.0299
2. -0.00116
3. 0.221
4. -0.0145
5. 0.141
6. 0.203

Need PBM 8-mer E-score for each of these sequences.
1. CCATGCGC
2. GAACACTC

## Output
1: 0.153; 2: -0.0859

List the reported PBM 8-mer E-score of each sequence below.
1. GCACGTCC
2. CGATTTCC
3. ATGCATTC
4. ATGCATGA
5. AGCGATAA

## Output
-0.0119
-0.13
0.197
0.244
-0.115

## Input Look at this sequence and give its reported PBM 8-mer E-score. CAGTTACG
## Output -0.0592

====

For each of the sequences below, state its PBM 8-mer E-score.
system: WT Max(13-93) synthetic (M65Nle); experiment: PBM 8-mer E-score (E-score (rank enrichment, -0.5 to 0.5)); higher = stronger preferential binding
Over roughly 33,000 sequences, “E-score (rank enrichment, -0.5 to 0.5)” has its median near -0.0075; the highest 2% begin near 0.23. This is one part of a sample in which the highest values are shown more often than they occur.
One number for each entry.

Examples with their reported PBM 8-mer E-score follow.
residue-string: AACTCCGG
tested-target: WT Max(13-93) synthetic (M65Nle)
PBM 8-mer E-score: -0.0587

residue-string: GGACATTA
tested-target: WT Max(13-93) synthetic (M65Nle)
PBM 8-mer E-score: 0.0724

Dear colleague, could you please provide PBM 8-mer E-score for the sequences listed below?
1. AAACCCAG
2. CCCTCCCA
3. CCCCTCCC
4. AAGCACGA

## Output
1: -0.00534; 2: 0.262; 3: 0.239; 4: 0.125

====

system: WT Max(13-93) synthetic (M65Nle); assay: PBM 8-mer E-score (E-score (rank enrichment, -0.5 to 0.5)); higher = stronger preferential binding
Whole data set: some 33,000 sequences, median “E-score (rank enrichment, -0.5 to 0.5)” near -0.0075, cut for the highest 2% near 0.23. The entries come from a sample that favours the highest values as a whole.
Just so you know, the groups by PBM 8-mer E-score go like this: bottom (below 0.01), middle (0.01 to below 0.1), top (0.1 or more)

Past entries and their recorded results:
residue-string: TTGCTAAA
label-value: bottom
--
residue-string: GAAATCAA
label-value: top
--
residue-string: CTTTCGTC
label-value: middle

## Input For this sequence, which bin applies? TAGTCCCA
## Output bottom

## Input Which bin should I file CGTATCTA under?
## Output bottom

## Input For the record GAGAAAAC , report the class its PBM 8-mer E-score corresponds to.
## Output bottom

## Input Class label required: CCATAACA
## Output top

## Input Which class does AATAGGTA fall in?
## Output top

## Input Into which bin does this sequence go? ATGTGCAA
## Output top

## Input In plain terms, what class is CCATAACC ?
## Output top

## Input Which class holds GCATAACA ?
## Output top

## Input Class? Entry: ACAAACAC
## Output top

## Input Class label required: ACGCTAAA
## Output bottom

## Input Band for TAAATATA ?
## Output top

## Input Category lookup for the sequence GGTATCTA
## Output middle

## Input Exercise: read the entry AAGTGCAT and state which class it falls under.
## Output top

## Input Which class is correct for the following sequence? CAAAATAC
## Output top

====

test system: WT Max(13-93) synthetic (M65Nle); experiment: PBM 8-mer E-score (E-score (rank enrichment, -0.5 to 0.5)); higher = stronger preferential binding
In all, about 33,000 sequences were measured (“E-score (rank enrichment, -0.5 to 0.5)”: median about -0.0075, highest 2% from about 0.23 on). Shown is part of a subset that was picked to be rich in the highest values.
observable: PBM 8-mer E-score
Answers are plain numbers.

residue-string: AACCCAAG
tested-target: WT Max(13-93) synthetic (M65Nle)
measured-result: 0.00894
//
residue-string: CTGATCCC
tested-target: WT Max(13-93) synthetic (M65Nle)
measured-result: -0.00057
//
residue-string: CTGCCAAC
tested-target: WT Max(13-93) synthetic (M65Nle)
measured-result: -0.111
//
residue-string: GAGCCGGC
tested-target: WT Max(13-93) synthetic (M65Nle)
measured-result: -0.26
//
residue-string: GCATTACA
tested-target: WT Max(13-93) synthetic (M65Nle)
measured-result: 0.133
//
residue-string: CTATATTA
tested-target: WT Max(13-93) synthetic (M65Nle)
measured-result: 0.221

Items follow; give PBM 8-mer E-score for each.
1. AGGACGGC
2. CATGCGTA
3. CGTGGCCC
4. ACGACCAA
5. CATGCATA
6. CATGCAAC
7. AACAGTTG
8. ACTCTGAA

## Output
1: -0.0864; 2: 0.346; 3: 0.0336; 4: -0.0717; 5: 0.242; 6: 0.287; 7: -0.0604; 8: -0.0606

Please look at the items below and tell me PBM 8-mer E-score for each one, in order.
1. CTGTGTAA
2. AACCACTT
3. ACTGCATG
4. ATTGCATG
5. CGTGCTAC
6. GTGCCTCA
7. CTTGAAAA

## Output
1. -0.00451
2. 0.109
3. 0.0467
4. 0.163
5. 0.2
6. -0.133
7. 0.0938
